# Experiment description: Pharmacokinetics in control rats after gavage of JYPs
# Type: in vivo, Sprague Dawley (SD) rats
# Experimental context: male, Sprague-Dawley, rat, plasma, 4.32 g/kg/day, oral JYPs high dose 4.320 g/kg/d (3rd of 3 values)
# Cmax per entry
Output spec: scalar in ng/mL, unitless text.

Look at this compound and give its reported Cmax. CCCC=C1OC(=O)C2=C1CCC1C3C=C4C(=O)OC(=CCCC)C4(CC3)C21 (stereo not shown) [Levistilide A] 4.6

Please look up its Cmax: C[C@H]1O[C@@H](O[C@H]2CC[C@@]3(C)[C@@H](CC[C@]4(C)[C@@H]3C=C[C@]35OC[C@@]6(CCC(C)(C)C[C@H]63)[C@H](O)C[C@]54C)[C@]2(C)CO)[C@H](O)[C@@H](O[C@@H]2O[C@H](CO)[C@@H](O)[C@H](O)[C@H]2O)[C@H]1O 41.8

What value of Cmax has been reported for the following compound? C[C@H]1O[C@@H](O[C@H]2CC[C@@]3(C)[C@@H](CC[C@]4(C)[C@@H]3C=C[C@]35OC[C@@]6(CCC(C)(C)C[C@H]63)[C@@H](O)C[C@]54C)[C@]2(C)CO)[C@H](O)[C@@H](O[C@@H]2O[C@H](CO)[C@@H](O)[C@H](O)[C@H]2O)[C@H]1O 67.4

Endpoint output: Cmax of CCC/C=C1\OC(=O)C2=C1CCC=C2 [Z-Ligustilide] . Value? 5.27
